# system: UniProt Q9HCE7
# Sequence (Q9HCE7 341-757): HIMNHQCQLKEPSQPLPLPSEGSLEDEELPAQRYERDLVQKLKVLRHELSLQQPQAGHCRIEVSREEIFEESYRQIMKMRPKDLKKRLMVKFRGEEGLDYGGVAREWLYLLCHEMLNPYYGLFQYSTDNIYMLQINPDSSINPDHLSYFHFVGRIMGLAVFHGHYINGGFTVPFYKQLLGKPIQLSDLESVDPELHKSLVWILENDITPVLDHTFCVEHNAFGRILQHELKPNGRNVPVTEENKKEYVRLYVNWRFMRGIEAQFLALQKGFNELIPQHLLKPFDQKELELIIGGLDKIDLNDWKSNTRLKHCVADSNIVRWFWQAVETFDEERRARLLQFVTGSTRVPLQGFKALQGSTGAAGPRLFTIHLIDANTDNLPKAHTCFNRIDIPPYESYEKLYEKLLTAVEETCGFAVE
readout: pKd
Give bare numbers, as −log10 of the molar value.

> print(dat)
                                   compound          system  result
1  Cc1c(C(=O)Nc2c(C)n(C)n(C3CCCCC3)c2=O)nnn1-c1ccc(OC(F)(F)F)cc1Cl  UniProt Q9HCE7    4.26

Let's switch to this compound now.
Endpoint output: pKd of Cc1c(NC(=O)c2noc3c2CCSc2cc(OC(F)(F)F)ccc2-3)c(=O)n(C2CCCCC2)n1C . Value?
4.59

* * *

# Test system: Smurf1C2
# assay method text: UbFluor fluorescence polarization assay
# Assay type: biochemical, Homo sapiens
# test parameters: 0.5 µM enzyme, 2 µM UbFluor, pH 7.4, 0.01% Tween20
Field: IC50. Provide a value for each of the compounds that follow.
One number for each entry, in nM.

> print(dat)
                                   compound  reading.unit  result
1  Cc1c(NC(=O)c2noc3c2CCSc2cc(OC(F)(F)F)ccc2-3)c(=O)n(C2CCCCC2)n1C            nM     140

Let's switch to this compound now.
Test system Smurf1C2; read-out IC50; what value for Cc1c(C(=O)Nc2c(C)n(C)n(C3CCCCC3)c2=O)nnn1-c1ccc(OC(F)(F)F)cc1Cl ?
3100
